Target: PRMT5/MEP50 complex (Homo sapiens, UniProt O14744)
Sequence (O14744 whole entry, the tested form may be a part): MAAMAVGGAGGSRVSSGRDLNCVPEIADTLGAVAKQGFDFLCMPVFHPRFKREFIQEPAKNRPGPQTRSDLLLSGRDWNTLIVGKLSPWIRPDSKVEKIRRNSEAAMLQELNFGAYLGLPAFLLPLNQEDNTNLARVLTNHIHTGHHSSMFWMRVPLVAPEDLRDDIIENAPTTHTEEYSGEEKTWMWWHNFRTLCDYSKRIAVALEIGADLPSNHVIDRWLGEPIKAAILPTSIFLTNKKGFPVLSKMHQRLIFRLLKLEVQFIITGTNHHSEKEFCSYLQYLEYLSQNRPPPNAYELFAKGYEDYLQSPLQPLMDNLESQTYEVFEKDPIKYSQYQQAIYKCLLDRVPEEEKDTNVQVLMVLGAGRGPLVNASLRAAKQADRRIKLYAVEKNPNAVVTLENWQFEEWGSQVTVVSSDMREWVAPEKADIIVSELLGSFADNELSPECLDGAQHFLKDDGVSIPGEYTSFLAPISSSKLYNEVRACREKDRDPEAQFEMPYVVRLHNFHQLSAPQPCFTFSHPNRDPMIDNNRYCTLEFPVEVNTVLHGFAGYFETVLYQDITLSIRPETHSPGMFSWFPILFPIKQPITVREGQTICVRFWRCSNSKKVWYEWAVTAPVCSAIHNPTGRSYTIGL
Sequence (Q9BQA1 whole entry, further chain, the tested form may be a part): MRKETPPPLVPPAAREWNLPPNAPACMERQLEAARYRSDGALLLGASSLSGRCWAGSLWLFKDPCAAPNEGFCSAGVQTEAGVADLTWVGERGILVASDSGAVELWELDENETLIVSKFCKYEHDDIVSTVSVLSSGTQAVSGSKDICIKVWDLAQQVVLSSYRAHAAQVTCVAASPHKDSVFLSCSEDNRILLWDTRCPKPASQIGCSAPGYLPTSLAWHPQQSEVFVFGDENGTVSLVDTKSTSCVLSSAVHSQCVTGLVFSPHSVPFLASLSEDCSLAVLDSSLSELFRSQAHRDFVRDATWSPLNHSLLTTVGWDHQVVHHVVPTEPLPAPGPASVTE
Assay: Inhibition of recombinant human fetal brain FLAG-tagged PRMT5/full length human testis 6His-tagged MEP50 expressed in baculovirus infected insect Sf9 cells using human histone H4 (1 to 15 residues) as substrate preincubated for 30 mins followed by [3H]-SAM addition
Listing of recorded IC50 by entry.

O=C(Nc1cccc(OCC(O)CN2CCc3ccccc3C2)c1)c1cccnn1 (stereo not given) : 1 to 10 µM
CN(C(=O)c1cncn1C)c1cccc(OCC(O)CN2CCc3ccccc3C2)c1 (stereo not given) : 1 to 10 µM
COc1cc2c(cc1OC)CN(CC(O)COc1cccc(-c3ccc4ncn(C)c4c3)c1)CC2 (stereo not given) : > 40 µM
CCOC(=O)CC1c2ccccc2CCN1CC(O)COc1cccc(-c2ccc3ncn(C)c3c2)c1 (stereo not given) : 1 to 10 µM

Lab note: Cn1cnc2ccc(-c3cccc(OC[C@H](O)CN4Cc5ccccc5C4)c3)cc21 gave IC50 of 1 to 10 µM

Reported IC50 of O=C1CN(c2cccc(F)c2)CCN1CC(O)CN1CCc2ccccc2C1 (stereo not given) : < 0.1 µM

Note to self: IC50 recorded for CCN(c1cccc(C(=O)NCC(O)CN2CCc3ccccc3C2)c1C)C1CCOCC1 (stereo not given) was < 0.1 µM

Noted for Cn1cnc2ccc(-c3cccc(OCC(O)CN4CCc5c(Cl)cccc5C4)c3)cc21 (stereo not given) : its IC50 reads 1 to 10 µM

O=C(COc1cccc(NC2CCOCC2)n1)NCC(O)CN1CCc2ccccc2C1 (stereo not given) yielded IC50 of 1 to 10 µM

Looking up OC(COc1ccc(-c2ccn[nH]2)cc1)CN1CCc2ccccc2C1 (stereo not given) , I found its IC50 recorded as 1 to 10 µM

---

Below is a list of entries, each paired with its recorded IC50 value.
Biological target: PRMT5/MEP50 complex (Homo sapiens)
Assay: Inhibition of recombinant human fetal brain FLAG-tagged PRMT5/full length human testis 6His-tagged MEP50 expressed in baculovirus infected insect Sf9 cells using human histone H4 (1 to 15 residues) as substrate preincubated for 30 mins followed by [3H]-SAM addition

Previously resolved entries follow.
CS(=O)(=O)Nc1cccc(OCC(=O)NCC(O)CN2CCc3ccccc3C2)c1 (stereo unspecified) : < 0.1 µM
CS(=O)(=O)N1CCN(CC(O)CN2CCc3ccccc3C2)C(=O)C1 (stereo unspecified) : 1 to 10 µM
Cn1cc2cc(-c3cccc(OCC(O)CN4CCc5ccccc5C4)c3)ccc2n1 (stereo unspecified) : 1 to 10 µM
OC(COc1cccc(-c2ccc3c(c2)OCCO3)c1)CN1CCc2ccccc2C1 (stereo unspecified) : 0.101 to 1 µM
Cn1cnc2ccc(-c3cccc(OCC(O)CN4CCc5ccc(Cl)cc5C4)c3)cc21 (stereo unspecified) : 1 to 10 µM
Cn1cnc2ccc(NCC(=O)NCC(O)CN3CCc4ccccc4C3)cc21 (stereo unspecified) : 0.101 to 1 µM

For reference, reported IC50 for CC(C)n1cnc2ccc(-c3cccc(OCC(O)CN4CCc5ccccc5C4)c3)cc21 (stereo unspecified) stands at 0.101 to 1 µM

// IC50 lookup, compound = OC(COc1cccc(-c2ccc3ncn(-c4ccccc4)c3c2)c1)CN1CCc2ccccc2C1 (stereo unspecified) , result: 0.101 to 1 µM

Entry CN(C)c1cccc(OCC(=O)NCC(O)CN2CCc3ccccc3C2)c1 (stereo unspecified) , IC50 reported as < 0.1 µM

Entry Cn1ncc2cc(-c3cccc(OCC(O)CN4CCc5ccccc5C4)c3)ccc21 (stereo unspecified) , IC50 reported as < 0.1 µM

C[C@H](Oc1cccc2cccnc12)C(=O)NC[C@H](O)CN1CCc2ccccc2C1 yielded IC50 of < 0.1 µM
